tested on: HT-29; test: NCI tumour cell line growth inhibition, 48 h
Calls of active or inactive are those of the source. Cut-off read from the data, not from the text of the source: active = GI50 up to about 1.1 µM and inactive = higher.
Write down one outcome, taken from active, inactive

Prompt line: Can you look up the reported call for CCOc1ccccc1NC(=O)C(C#N)C1=C(Cl)C(=O)c2ccccc2C1=O (configuration not stated) for me?
Response line: inactive

Prompt line: Can you look up the reported call for O=C(/C=C/c1ccco1)CC(=O)/C=C/c1ccco1 for me?
Response line: inactive

----------
tested on: SF-539; assay: NCI tumour cell line growth inhibition, 48 h
Calls of active or inactive are those of the source. Rule as the data show it: active = GI50 up to about 1.1 µM and inactive = higher. Positions of bridges follow the written chain, without caps; N, C: chain ends. Residues, ends and D or L forms follow the SMILES beside them.
The entries below are paired with their reported GI50.

Consider the worked cases shown below.
Cc1nc2ccc(F)cc2c2c1CCN2c1ccc(Cl)cc1	10.5 µM (inactive)
Nc1nc(O)c(Br)c(-c2cccc([N+](=O)[O-])c2)n1	> 58.1 µM (inactive)
CNC=O	> 10000 µM (inactive)
CC(=O)Nc1ccc(-c2nnc(SCC(=O)Nc3ccc(Cl)cc3)o2)cc1	16 µM (inactive)

Reported GI50 for Cc1nc2c(n1CCN(C)C)C(=O)c1ccccc1C2=O was 19.1 µM (inactive)

Reported GI50 for COC(=O)C1CCC(=O)NCCCCC(NC(=O)C(N)CC(=O)O)C(=O)N1 (stereo not drawn) (H-Asp-Lys-Glu-OMe; lactam 2-3; configuration not given here) was > 100 µM (inactive)

Reported GI50 for O/N=C(\CC(O)(C(F)(F)F)C(F)(F)F)c1cccc(Cl)c1 was 28.6 µM (inactive)

----------
test system: SN12C; assay: NCI tumour cell line growth inhibition, 48 h
Activity calls are given as the source filed them. Cut-off read from the data, not from the text of the source: active = GI50 up to about 1.1 µM and inactive = higher. Square brackets hold non-standard residues; d marks the D form. Peptide text beside a SMILES is read from it. * marks the point of attachment. ξ: configuration not given here. NMeY = CN[C@@H](Cc1ccc(O)cc1)C(=O)O; Cbz = O=C(OCc1ccccc1)*; ξA = CC(N)C(=O)O
Write down one outcome, taken from class 1 (active), class 0 (inactive)

Solved entries (count: 5):
ClCCCc1ccccc1C1=NCCc2ccccc21	class 0
CCOC(=O)C1=C(NC)OC/C1=N\NC(=O)c1ccccc1O	class 0
COc1cc([C@@H]2c3cc4c(cc3[C@@H](NC(=O)NO)[C@H]3COC(=O)[C@H]23)OCO4)cc(OC)c1O	class 0
O=C(/C=C/c1ccccc1)OCC1=C[C@@H](O)[C@@H]2C=CO[C@@H](OC3OC(CO)C(O)C(O)C3O)[C@H]12 (stereo partly drawn)	class 0
Cc1nc2c(s/c(=N\N)n2-c2ccccc2)c(=O)n1C	class 0

Prompt line: Can you look up the reported call for COc1ccc(C[C@@H](C(=O)N[C@@H](C)C(N)=O)N(C)C(=O)[C@@H]2CCCN2C(=O)[C@H](CC(C)C)NC(=O)C(C)NC(=O)OCc2ccccc2)cc1 (stereo partly drawn) (Cbz-[ξA]LP[NMeY](Me)A-NH2) for me?
Response line: class 0

Prompt line: Can you look up the reported call for CCCCCCCCCCCCCCCCCC(=O)OCC(CN(C)CCN(C)C)OC(=O)CCCCCCCCCCCCCCCCC (stereo not drawn) for me?
Response line: class 0

Prompt line: Can you look up the reported call for C=C(CO)[C@H]1Oc2ccc(C(C)=O)cc2[C@@H]1O for me?
Response line: class 0

Prompt line: Can you look up the reported call for C1C[N+]23CCC[N+]2(C1)CCC3 (stereo not drawn) for me?
Response line: class 0

Prompt line: Can you look up the reported call for O=C1c2c(c(-c3ccccc3)c(-c3ccccc3)c(-c3ccccc3)c2-c2ccccc2)C(=O)N1c1cccc(Br)c1 for me?
Response line: class 0

Prompt line: Can you look up the reported call for Cc1nc2ccc(F)cc2c2c1CCN2c1ccc(Cl)cc1 for me?
Response line: class 0

Prompt line: Can you look up the reported call for COc1cc(-c2cn(S(=O)(=O)c3ccc(C)cc3)c3ccccc23)nc(-c2cn(S(=O)(=O)c3ccc(C)cc3)c3ccccc23)n1 for me?
Response line: class 0

Prompt line: Can you look up the reported call for N=C(c1cccs1)C1(N2CCCCC2)CCCCC1 for me?
Response line: class 0

Prompt line: Can you look up the reported call for S=C1Cc2c(-c3ccc(Cl)cc3)cc(-c3ccccc3)nc2-c2ccccc2N1 for me?
Response line: class 0

Prompt line: Can you look up the reported call for CCNC(=O)C(O)C1(O)CCC2[C@@H]3CCC4=CC(=O)C=C[C@]4(C)C3[C@@H](O)C[C@@]21C (stereo partly drawn) for me?
Response line: class 0

Prompt line: Can you look up the reported call for CC(=O)O[C@H]1CC[C@@]2(C)C(=CC[C@@H]3C2CC[C@]2(C)Nc4nc5ccccc5cc4CC32)C1 (stereo partly drawn) for me?
Response line: class 0

Prompt line: Can you look up the reported call for CCN(CC)c1nc(N(C)C)c2cc(OC)ccc2n1 for me?
Response line: class 0
